Let's go through some pKi measurements on Carbonic anhydrase 9 (Homo sapiens) together.
When answering, recall that pKi equals minus log10 of the concentration in mol/L, and write that number alone.

What measured pKi goes with CCNS(=O)(=O)c1ccc2c(c1)S(=O)(=O)C=C2 ? 6.44

And NS(=O)(=O)c1ccc2c(c1)S(=O)(=O)CC2OCc1ccccc1 (configuration not stated) ? 8.55

Proceed to CCCCOC1CS(=O)(=O)c2cc(S(N)(=O)=O)ccc21 (configuration not stated) 8.51

Also NS(=O)(=O)c1ccc2c(c1)S(=O)(=O)C=C2 ? 7.82

Then what about the compound NS(=O)(=O)c1ccc2c(c1)S(=O)(=O)CC2 ? 8.00
